Field: pIC50. Provide a value for each of the compounds that follow.
# System: SW620 cells (KRAS G12V)
# Method: Cell viability assay (Cell Counting Kit-8, 3-day)
# Assay type: cell-based, human
# Experimental setup: Homo sapiens, SW-620; SW620, 72 hrs incubation
# Procedure: The purpose of this cellular assay was to determine the effects of test compounds on the proliferation of human cancer cell lines NCI-H358 (ATCC-CRL5807) cells, AGS (ATCC-CRL-1739) cells, SW620 (ATCC-CCL-227) over a 3-day treatment period by quantifying the amount of NADPH present at endpoint using Cell Counting Kit-8. Cells were seeded at 5,000 cells/well (NCI-H358), 2,000 cells/well (AGS) 2,000 cells/well (SW620) in 96-well assay plates (Corning-3699) and incubated overnight. […]
Give bare numbers, as −log10 of the molar value.

Before answering, review these 3 worked examples.
INSERT INTO assay_data (compound, readout, reading) VALUES
  ('CO[C@@H](C)c1ncc(N2CCN(C)CC2)cc1-c1c2c3cc(cc4c3n1CCO4)-c1csc(n1)C[C@H](NC(=O)[C@H]1C[C@@H]1C(F)F)C(=O)N1CCC[C@H](N1)C(=O)OCC(C)(C)C2 (atropisomer, axis not shown; (M))', 'pIC50', 8.96),
  ('CO[C@@H](C)c1ncc(N2CCN(C)CC2)cc1-c1c2c3cc(cc4c3n1CCC4)-c1csc(n1)C[C@H](NC(=O)[C@@H]1C[C@H]1c1cncnc1C)C(=O)N1CCC[C@H](N1)C(=O)OCC(C)(C)C2 (atropisomer, axis not shown; (M))', 'pIC50', 9.10),
  ('CO[C@@H](C)c1ncc(N2CCN(C)CC2)cc1-c1c2c3cc(cc4c3n1CCC4)-c1csc(n1)C[C@H](NC(=O)[C@H]1C[C@@H]1c1cnccn1)C(=O)N1CCC[C@H](N1)C(=O)OCC(C)(C)C2 (atropisomer, axis not shown; (M))', 'pIC50', 9.40);

What value of measured pIC50 is listed for CO[C@@H](C)c1ncc(N2CCN(C)CC2)cc1-c1c2c3cc(cc4c3n1CCC4)-c1csc(n1)C[C@H](NC(=O)[C@H]1[C@@H]3COC[C@@H]31)C(=O)N1CCC[C@H](N1)C(=O)OCC(C)(C)C2 (atropisomer, axis not shown; (M)) ?
8.92

Cited source for all entries: patent US20240417410A1
